B1: LINE1-full (parent)
chain: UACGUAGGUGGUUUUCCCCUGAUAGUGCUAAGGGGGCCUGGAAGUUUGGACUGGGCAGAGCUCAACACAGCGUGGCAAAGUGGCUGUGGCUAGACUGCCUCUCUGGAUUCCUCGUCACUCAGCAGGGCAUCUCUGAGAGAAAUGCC

variants of: B1; assay: self-cleavage, relative activity (ratio to wild type); higher = more cleavage; in vitro, sequencing; the parent is a self-cleaving ribozyme
The variants listed here are annotated with their self-cleavage.
// no unit string in output, number only

G21A U115A :: 1.46
G11A U96C :: 0.08
U45C C116U :: 1.36
C131U A138G :: 1.36
U52G U104A :: 1

Continue with the next variant.
Identify measured self-cleavage corresponding to G34U U47C
2.18
